- measuredOn: EIF2AK3 (PERK) catalytic domain (amino acids 536-1116) (Homo sapiens (Human), UniProt Q9NZJ5)
- Sequence (Q9NZJ5 536-1116): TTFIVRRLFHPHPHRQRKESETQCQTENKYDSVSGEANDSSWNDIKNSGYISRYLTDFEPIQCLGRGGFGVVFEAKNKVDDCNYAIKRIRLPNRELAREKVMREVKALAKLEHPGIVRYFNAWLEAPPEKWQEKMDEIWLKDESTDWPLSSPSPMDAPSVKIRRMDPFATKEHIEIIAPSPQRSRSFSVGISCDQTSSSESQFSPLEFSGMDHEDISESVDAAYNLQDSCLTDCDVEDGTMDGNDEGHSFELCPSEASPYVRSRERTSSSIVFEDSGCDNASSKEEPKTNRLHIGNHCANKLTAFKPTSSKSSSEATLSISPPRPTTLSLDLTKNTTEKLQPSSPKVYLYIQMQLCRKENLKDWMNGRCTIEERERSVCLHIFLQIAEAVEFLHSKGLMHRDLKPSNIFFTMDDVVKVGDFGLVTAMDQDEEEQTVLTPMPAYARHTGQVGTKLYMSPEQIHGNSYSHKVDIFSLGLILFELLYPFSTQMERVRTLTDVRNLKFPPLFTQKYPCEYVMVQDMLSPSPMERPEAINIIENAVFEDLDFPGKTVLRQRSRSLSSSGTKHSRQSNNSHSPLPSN
- protocolDescription: PERK in vitro activity assay (isolated), TR-FRET kinase assay
- assayConditions: isolated PERK enzyme, 1.5 μM ATP, GFP-eIF2a substrate; read-out: Biochemical IC50
pIC50: −log10 of the molar value.
The entries below come with measured pIC50 values attached.

Reference set, count: 3
Cc1cc(NC(=O)C(O)c2cc(F)cc(F)c2)ccc1-c1cnc(N)c(C(=O)N(C)C)c1 (centres unmarked) [Example 22]
6.00 to 6.30
COc1ccc(CC(=O)Nc2ccc(-c3cnc(N)c(C(=O)NC(C)C)c3)c(C)c2)cc1
6.00 to 6.30
CCc1cc(NC(=O)C(O)c2cc(F)cc(F)c2)ccc1-c1cnc(N)c(C(=O)NCC(F)(F)F)n1 (single isomer, unassigned) [Example 155]
6.60 to 7.00

Task: Output pIC50 of CCc1cccc(C(O)C(=O)Nc2ccc(-c3cnc(N)c(C(=O)NC(C)C)c3)c(C)c2)c1 (single isomer, unassigned) [Example 72]
Output: 7.60 to 9.00

Task: Output pIC50 of CC(C)NC(=O)c1cc(-c2ccc(NC(=O)C(O)c3cc(F)cc(F)c3)cc2Cl)cnc1N (single isomer, unassigned) [Example 34]
Output: 7.60 to 9.00

Task: Output pIC50 of Cc1c(-c2cnc(N)c(C(=O)NC3COC3)c2)ccc(NC(=O)C(O)c2cc(F)cc(F)c2)c1F (centres unmarked) [Example 121]
Output: 7.60 to 9.00

Task: Output pIC50 of Cc1cc(NC(=O)C(O)c2cc(F)cc(F)c2)ccc1-c1cnc(N)c(C(=O)NC2CNC2)c1 (centres unmarked) [Example 45]
Output: 7.00 to 7.29

Task: Output pIC50 of Nc1ncc(-c2ccc(NC(=O)C(O)c3cc(F)cc(F)c3)cc2Cl)cc1C(=O)NCC(F)(F)F (centres unmarked) [Example 87]
Output: 7.30 to 7.59

Task: Output pIC50 of CC(C)NC(=O)c1cc(-c2ccc(NC(=O)C(O)c3cc(F)cc(F)c3)cc2Cl)cnc1N (single isomer, unassigned) [Example 35]
Output: 7.00 to 7.29

Task: Output pIC50 of Cc1cc(NC(=O)C(O)c2ccccc2)ccc1-c1cnc(N)c(C(=O)NC(C)C)c1 (single isomer, unassigned) [Example 2]
Output: 7.60 to 9.00

Task: Output pIC50 of Cc1cc(NC(=O)C(O)c2cc(F)cc(F)c2)ccc1-c1cnc(N)c(C(=O)NC(C)C)c1 (centres unmarked) [Example 40]
Output: 7.60 to 9.00

Task: Output pIC50 of CNc1ncc(-c2ccc(NC(=O)C(O)c3cc(F)cc(F)c3)cc2C)cc1C(=O)NC(C)C (centres unmarked) [Example 174]
Output: 6.60 to 7.00

Task: Output pIC50 of CCc1cccc(C(O)C(=O)Nc2ccc(-c3cnc(N)c(C(=O)NC(C)C)c3)c(Cl)c2)c1 (centres unmarked) [Example 94]
Output: 7.60 to 9.00

Task: Output pIC50 of CCNC(=O)c1cc(-c2ccc(NC(=O)C(O)c3cc(F)cc(F)c3)cc2CC)cnc1N (centres unmarked) [Example 98]
Output: 7.60 to 9.00
